Tested on: HOP-62 NSCLC
assay_name: NCI tumour cell line growth inhibition, 48 h; in the data active means GI50 below about 0.43 µM; inactive means the rest
Select the matching outcome among active, inactive

Challenge: Dear colleague, could you share the recorded outcome for COc1ccccc1[N-]C(C1=C([O-])c2ccccc2C1=O)c1ccccc1.COc1ccccc1[N-]C(C1=C([O-])c2ccccc2C1=O)c1ccccc1.[Cu+2] (stereo not drawn) when you have a moment?
Response given: inactive

Challenge: Recorded call for CCCN1C(=O)/C(=c2\sc3n(c2=O)C2C(NN=3)N(CC)C(=O)N2CC)c2ccccc21 (stereo not drawn) ?
Response given: inactive

Challenge: Just curious, what result did Cc1cc(N2CCCCC2)nc(N(CCNc2ccnc3cc(Cl)ccc23)Cc2ccco2)n1 get here?
Response given: inactive

Challenge: Query: recorded result category for C=C(C)[C@@H]1CC[C@]2(C(=O)NCCCN)CC[C@]3(C)[C@H](CC[C@@H]4[C@@]5(C)CC[C@H](O)C(C)(C)[C@@H]5CC[C@]43C)[C@@H]12 in this test
Response given: inactive

Challenge: I would be grateful if you could indicate the recorded call for Fc1ccc(-c2nc3n(c2-c2ccncc2)CCS3)cc1 .
Response given: inactive

* * *

Attribute: TGI
System: SK-OV-3 ovarian
assay_name: NCI tumour cell line growth inhibition, 48 h

// TGI lookup, molecule = COc1ccc(/C=C2/C(C)=NN(c3cccc(Cl)c3)/C2=N/c2nc3ccccc3s2)cc1 , result: 63.7 µM

* * *

System: HOP-18 NSCLC
assay_name: NCI tumour cell line growth inhibition, 48 h
Each item that follows carries a reported TGI.

Completed entries (count: 3):
COC(=O)CCC(=O)N1Cc2cc(C)ccc2N(C(=O)CCC(=O)OC)Cc2cc(C)ccc21
> 100 µM
COC(=O)[C@@H]1CSC(=S)N1C(=O)C[C@H]1CC=CC[C@H]1CC(=O)Sc1ccccc1
61.1 µM
COc1cc(NC(C)=O)c2[nH]c3c(C)cc(NC(C)=O)c(C)c3c2c1
> 100 µM

Entry CC(C)=CCCC1(C)C=Cc2c(c(C)cc3c2[nH]c2cc(O)ccc23)O1 (centres undefined) , TGI reported as > 25 µM

// field: TGI; key: O=C1C/C(=C/c2ccc(/C=C3/CC(=O)N(c4cccc(Br)c4)C3=O)cc2)C(=O)N1c1cccc(Br)c1 ; value = > 100 µM

Measured TGI, C=C1C(=O)O[C@H]2C[C@@H](C)[C@@H]3CC(=O)OC[C@@]3(C)CC12 (some centres undefined) : > 100 µM

O=C(NCCCCCCNC(=O)c1cccc2ccccc12)c1cccc2ccccc12 yielded TGI of 76.8 µM

Sample NC(=S)NNC(=O)/C(=C/c1ccc(/C=C(\NC(=O)c2ccccc2)C(=O)NNC(N)=S)cc1)NC(=O)c1ccccc1 ; TGI observed: > 100 µM

Looking up CS(=O)(=O)CC1=Nc2nnc(CCCCCCCc3nnc4n3C(=O)C(CS(C)(=O)=O)=N4)n2C1=O , I found its TGI recorded as > 100 µM

* * *

Collected GI50 values appear next to each entry.
System: SN12C renal
assay_name: NCI tumour cell line growth inhibition, 48 h

Recorded results for 5 molecules are shown here.
COc1cc2cc(C(=O)N3CC(CCl)c4c3cc(NC(=O)C(C)(C)c3ccccc3[N+](=O)[O-])c3ccccc43)[nH]c2c(OC)c1OC (configuration not stated)
146 µM
N#CC(C#N)=Cc1ccc(-c2ccc(-c3nc4ccccc4s3)cc2)o1
1.09 µM
Fc1ccc2[nH]cc(Cc3c[nH]c4ccc(F)cc34)c2c1
21.6 µM
COc1ccccc1[N-]C(C1=C([O-])c2ccccc2C1=O)c1ccccc1.COc1ccccc1[N-]C(C1=C([O-])c2ccccc2C1=O)c1ccccc1.[Cu+2] (configuration not stated)
9.37 µM
COc1ccc2c(c1)CCC1C2CCC2(C)C1CCC2(O)CNC(=O)CCCCC1CCSS1 (configuration not stated)
16.6 µM

// sample c1ccc2[nH]c(-c3ccc(N4CCN(c5ccc(-c6nc7ccccc7[nH]6)cc5)CC4)cc3)nc2c1 , its GI50 was > 100 µM

The molecule identified as CCOC(=O)Cc1c[nH]c(=S)[nH]c1=O registered its GI50 at > 100 µM
